Please find below IC50 data on Androgen receptor (Homo sapiens) compiled from the literature.
measure: IC50 (µM)

// below: answered compounds
>>> measuredresult("CC1(C)C(=O)N(c2ccc(C#N)c(C(F)(F)F)c2)C(=S)N1c1ccc(C(=O)NCCCCCCNS(N)(=O)=O)c(F)c1")
0.11
>>> measuredresult("CCNS(=O)(=O)c1ccc(-c2ccc3c(cnn3-c3ccc(F)cc3)c2)c(C(F)(F)F)c1")
3.16
>>> measuredresult("COC(=O)c1ccc(NC(=O)N2C[C@H](C)N(c3ccc(C#N)c(C(F)(F)F)c3)C[C@H]2C)cn1 (racemic)")
0.47
>>> measuredresult("CCCCn1nc(C)c(-c2ccc3c(c2)NC(=O)CO3)c1-c1ccc(F)cc1")
3.6
>>> measuredresult("COc1cncc(NC(=O)N2C[C@H](C)N(c3ccc(C#N)c(C(F)(F)F)c3)C[C@H]2C)c1 (racemic)")
0.44

[a] CC1=CC(C)(C)Nc2ccc3c(c21)C(c1ccc(Cl)c(C)c1)Oc1ccccc1-3 (stereo not drawn)
[b] CCS(=O)(=O)Nc1ccc(-c2ccc3c(cnn3-c3ccc(F)cc3)c2)c(C(F)(F)F)c1
Query: Given the listed items, does a or b have the lesser reported IC50? Indicate your choice by writing its label.
Response: a

[A] Fc1ccc(C2=NOC3CCCCC23)cc1C(F)(F)F (racemic)
[B] Cc1cc(N2C(=O)[C@@H]3C4C=CC(C4)[C@@H]3C2=O)ccc1Br
Query: I'd appreciate it if you could identify which of A and B has the greater IC50. Indicate your choice by writing its label.
Response: A

----------
Please find below IC50 data on UniProt P10275 compiled from the literature.
measure: IC50 (µM)

[1] CC1=CC(C)(C)Nc2ccc3c(c21)/C(=C/c1ccccc1N(C)C)Oc1ccc(F)cc1-3
[2] CC1(C2CC(C(F)(F)F)n3nc(C(=O)O)cc3N2)CC1 (configuration not stated)
[3] C[C@@H]1CN(c2ccc(C#N)c(C(F)(F)F)c2)[C@@H](C)CN1C(=O)Nc1cccnc1 (racemic)
[4] COc1cc(CNC(=O)[C@@]2(Cc3ccccc3)OC(=O)N([C@@H]3CCc4ccccc43)C2=O)cc(OC)c1
[5] CN1CCN(c2ccc(C(=O)N[C@H]3CC[C@H](Oc4ccc(C#N)c(Cl)c4)CC3)cc2)CC1
Query: Parameters: sort_field (IC50), sort_dir (desc). Put the labels in the requested order and list them out.
Response: 2, 4, 1, 3, 5
(2: 214 µM, 4: 12 µM, 1: 1.5 µM, 3: 0.12 µM, 5: 0.055 µM)

----------
Please find below pIC50 data on Androgen receptor (Homo sapiens) compiled from the literature.
Target: Androgen receptor (Homo sapiens)
Sequence (P10275 whole entry): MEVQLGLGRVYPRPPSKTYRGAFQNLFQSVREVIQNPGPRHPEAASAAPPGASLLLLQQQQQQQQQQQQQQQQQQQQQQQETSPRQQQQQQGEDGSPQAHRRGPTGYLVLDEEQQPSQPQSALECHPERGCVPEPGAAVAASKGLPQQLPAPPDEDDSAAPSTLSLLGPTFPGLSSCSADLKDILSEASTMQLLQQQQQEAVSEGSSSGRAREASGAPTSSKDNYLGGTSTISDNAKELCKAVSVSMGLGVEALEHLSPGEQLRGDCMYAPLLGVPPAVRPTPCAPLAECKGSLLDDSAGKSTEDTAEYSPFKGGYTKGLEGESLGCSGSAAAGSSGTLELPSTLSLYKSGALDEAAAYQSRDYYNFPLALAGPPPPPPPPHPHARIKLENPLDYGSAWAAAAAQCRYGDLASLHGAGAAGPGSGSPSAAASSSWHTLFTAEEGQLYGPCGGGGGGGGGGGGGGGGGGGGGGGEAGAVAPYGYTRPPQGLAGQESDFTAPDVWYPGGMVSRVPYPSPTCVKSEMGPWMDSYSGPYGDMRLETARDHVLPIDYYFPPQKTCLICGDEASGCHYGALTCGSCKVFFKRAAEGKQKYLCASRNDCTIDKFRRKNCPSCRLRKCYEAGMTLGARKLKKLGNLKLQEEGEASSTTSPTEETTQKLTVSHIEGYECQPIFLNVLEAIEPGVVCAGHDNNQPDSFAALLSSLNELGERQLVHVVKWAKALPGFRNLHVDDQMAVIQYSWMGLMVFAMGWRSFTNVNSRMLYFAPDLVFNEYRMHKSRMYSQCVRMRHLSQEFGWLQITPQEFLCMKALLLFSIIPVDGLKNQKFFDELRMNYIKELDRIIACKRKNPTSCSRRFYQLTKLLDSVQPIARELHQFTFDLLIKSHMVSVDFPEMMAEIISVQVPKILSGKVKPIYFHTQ
pIC50: −log10 of the molar value.
measure: pIC50

[1] Oc1nnc(Cc2ccccc2Cl)c2ccccc12
[2] CC1(C)C(=O)N(c2ccc(C#N)c(C(F)(F)F)c2)C(=S)N1c1ccc(C(=O)NCCCn2cccc(O)c2=O)c(F)c1
Query: I'd appreciate it if you could identify which of 1 and 2 has the greater pIC50. Indicate your choice by writing its label.
Response: 2
(2: 6.25, 1: 4.07)

[a] O=C1[C@@H]2C3CCC(C3)[C@@H]2C(=O)N1c1cccc(C(F)(F)F)c1
[b] N#Cc1ccc(C2=NOC3CCCCC23)c(C(F)(F)F)c1 (cis isomer)
[c] CC1=CC(C)(C)Nc2ccc3c(c21)/C(=C/c1ccccc1)Oc1c(F)cccc1-3
[d] O=C1[C@@H]2C3C=CC(C3)[C@@H]2C(=O)N1c1ccc(F)c(Cl)c1
Query: Sort by pIC50, descending. Put the labels in the requested order and list them out.
Response: a, d, c, b

[a] Fc1ccc(C2=NOC3CCCCCCC23)cc1C(F)(F)F (cis isomer; cis)
[b] CC1=CC(C)(C)Nc2ccc3c(c21)C(c1cc(Cl)cc(Cl)c1)Oc1ccccc1-3 (stereo not drawn)
[c] O=C1COc2ccc(C3=Nn4ccnc4SC3c3ccccc3)cc2N1 (stereo not drawn)
[d] O=[N+]([O-])c1ccc(C2=NO[C@@H]3CCCCC[C@H]23)c(C(F)(F)F)c1
[e] CN1CCN(c2ccc(C(=O)N3CCC4(CCN(c5ccc(C#N)c(Cl)c5)CC4)C3)cc2)CC1
Query: Sort by pIC50, descending. Put the labels in the requested order and list them out.
Response: c, d, b, a, e
(c: 7.02, d: 6.51, b: 5.96, a: 5.55, e: 5.30)
